Data origin, for the record: ChEMBL document CHEMBL3588828

# Target or test system: Peptidyl-prolyl cis-trans isomerase NIMA-interacting 1 (Homo sapiens, UniProt Q13526, S16A/Y23A)
# Sequence (Q13526 whole entry S16A/Y23A, the tested form may be a part): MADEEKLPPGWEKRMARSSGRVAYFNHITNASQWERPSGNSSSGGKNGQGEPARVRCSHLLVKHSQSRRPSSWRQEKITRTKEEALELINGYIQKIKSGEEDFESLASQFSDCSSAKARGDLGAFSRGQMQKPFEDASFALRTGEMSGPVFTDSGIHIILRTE
# Procedure summary: Binding affinity to N-terminal MBP fused and Texas-red-labeled full-length human Pin1 S16A/Y23A mutant expressed in Escherichia coli assessed as increase in fluorescence anisotropy by spectrofluorimetry
# Condition notes: read-out: Kd
Measured quantity: pKd
Numbers only, as −log10 of the molar value.

// lookup pKd for C[C@H]1NC(=O)[C@H](CCCNC(=N)N)NC(=O)[C@H](CCCNC(=N)N)NC(=O)[C@H](Cc2ccc3ccccc3c2)NC(=O)[C@H]2CCCCN2C(=O)[C@@H](CC(=O)O)NC(=O)CN(C)C(=O)[C@@H]2CCCN2C(=O)c2cc3cc(c2)C(=O)NC[C@H](NC1=O)C(=O)N[C@@H](Cc1ccccc1)C(=O)N[C@@H](Cc1ccc2ccccc2c1)C(=O)N[C@@H](CCCNC(=N)N)C(=O)N[C@@H](CCCNC(=N)N)C(=O)N[C@@H](CCCNC(=N)N)C(=O)N[C@@H](CCCNC(=N)N)C(=O)N[C@H](C(=O)N[C@@H](CCCCN)C(=O)O)CNC3=O
6.14
